Consider compounds characterized by their pKi with UniProt P33261.
Sequence (P33261 whole entry): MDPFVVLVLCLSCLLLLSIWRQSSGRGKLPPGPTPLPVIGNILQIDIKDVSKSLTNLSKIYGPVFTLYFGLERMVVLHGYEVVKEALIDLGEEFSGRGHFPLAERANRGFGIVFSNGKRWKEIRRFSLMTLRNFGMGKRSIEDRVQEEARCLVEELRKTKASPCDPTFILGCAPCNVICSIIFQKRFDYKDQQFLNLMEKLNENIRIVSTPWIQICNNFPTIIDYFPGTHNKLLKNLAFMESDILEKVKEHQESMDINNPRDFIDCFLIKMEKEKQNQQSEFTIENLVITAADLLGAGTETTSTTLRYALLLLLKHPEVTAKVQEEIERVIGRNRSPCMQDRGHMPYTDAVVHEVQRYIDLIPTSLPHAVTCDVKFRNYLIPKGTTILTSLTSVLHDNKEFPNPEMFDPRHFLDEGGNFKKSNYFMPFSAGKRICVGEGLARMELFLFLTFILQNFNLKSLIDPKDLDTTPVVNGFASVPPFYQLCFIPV
In textbook form, pKi equals minus log to base ten of the concentration in mol/L.

COMPOUND	PROPERTY_LABEL	QUANTITATIVE_READOUT
COCCCOc1ccnc(C[S+]([O-])c2nc3ccccc3[nH]2)c1C (centres unmarked)	pKi	3.79
COc1ccc2[nH]c([S+]([O-])Cc3ncc(C)c(OC)c3C)nc2c1 (centres unmarked)	pKi	4.45
Cc1c(OCC(F)(F)F)ccnc1C[S+]([O-])c1nc2ccccc2[nH]1 (centres unmarked)	pKi	4.38

Short answer please: pKi, UniProt P33261, entry COc1ccnc(C[S+]([O-])c2nc3ccc(OC(F)F)cc3[nH]2)c1OC (centres unmarked)
4.06

# value lookup — system UniProt P33261, readout pKi, item COc1ccnc(C[S+]([O-])c2nc3cc(-n4cccc4)ccc3[nH]2)c1C (centres unmarked)
3.78
